- assay: Photochromic properties of polymer (2 mm thick) containing the chromene compound, xenon lamp irradiation 120 seconds
- Assay type: physicochemical
- settings: not irradiated, at λmax
assay.endpoint: ε(0): absorbancy of the polymer not irradiated (initial color)
Answer using only a numeral; do not append any unit.

// ε(0): absorbancy of the polymer not irradiated (initial color) lookup, key: Fc1c(C2(c3ccco3)C=Cc3c(ccc4ccccc34)O2)ccc2ccccc12 (centres unmarked)
0.06

// ε(0): absorbancy of the polymer not irradiated (initial color) lookup, key: C1=CC(c2ncco2)(c2csc3ccccc23)Oc2ccc3cc(Cc4ccccc4)ccc3c21 (centres unmarked)
0.07

// ε(0): absorbancy of the polymer not irradiated (initial color) lookup, key: Fc1c(C2(c3cccs3)C=Cc3c(ccc4ccccc34)O2)ccc2ccccc12 (centres unmarked)
0.04

// ε(0): absorbancy of the polymer not irradiated (initial color) lookup, key: CC(C)(C)Oc1ccc2ccc3c(c2c1)C=CC(c1cccs1)(c1ccc2ccccc2c1Cl)O3 (centres unmarked)
0.05

// ε(0): absorbancy of the polymer not irradiated (initial color) lookup, key: C1=CC(c2ccco2)(c2cccc3ccccc23)Oc2ccc3ccccc3c21 (centres unmarked)
0.08

// ε(0): absorbancy of the polymer not irradiated (initial color) lookup, key: N#Cc1cc(Cl)c(C2(c3ccoc3)C=Cc3c(ccc4ccccc34)O2)s1 (centres unmarked)
0.05

// ε(0): absorbancy of the polymer not irradiated (initial color) lookup, key: C1=CC(c2ccsc2)(c2ccco2)Oc2ccc3ccccc3c21 (centres unmarked)
0.07

// ε(0): absorbancy of the polymer not irradiated (initial color) lookup, key: CC(=O)Oc1ccc2c3c(ccc2c1)OC(c1ccc(C)s1)(c1cccc2ccccc12)C=C3 (centres unmarked)
0.05

// ε(0): absorbancy of the polymer not irradiated (initial color) lookup, key: COc1ccc2c3c(ccc2c1)OC(c1cncs1)(c1cscc1C)C=C3 (centres unmarked)
0.06

// ε(0): absorbancy of the polymer not irradiated (initial color) lookup, key: COc1ccc2c3c(ccc2c1)OC(c1ccccc1)(c1ccccc1)C=C3 [B, reference compound]
0.04

// ε(0): absorbancy of the polymer not irradiated (initial color) lookup, key: COc1ccc2c3c(ccc2c1)OC(c1cccs1)(c1cccc2ccccc12)C=C3 (centres unmarked)
0.05

// ε(0): absorbancy of the polymer not irradiated (initial color) lookup, key: CCOc1c(C2(c3ccco3)C=Cc3c(ccc4cc(OC)c(C(C)=O)cc34)O2)ccc2ccccc12 (centres unmarked)
0.08

// ε(0): absorbancy of the polymer not irradiated (initial color) lookup, key: Fc1ccsc1C1(c2ccc3ccccc3c2)C=Cc2c(ccc3ccccc23)O1 (centres unmarked)
0.04

// ε(0): absorbancy of the polymer not irradiated (initial color) lookup, key: C1=CC(c2ccco2)(c2cc3ccccc3o2)Oc2ccc3ccccc3c21 (centres unmarked)
0.06

// ε(0): absorbancy of the polymer not irradiated (initial color) lookup, key: COc1ccc2ccc3c(c2c1)C=CC(c1ccco1)(c1coc2ccccc12)O3 (centres unmarked)
0.07

// ε(0): absorbancy of the polymer not irradiated (initial color) lookup, key: C1=CC(c2ccccc2)(c2ccccc2)Oc2ccc3ccccc3c21 [A, reference compound]
0.04

// ε(0): absorbancy of the polymer not irradiated (initial color) lookup, key: Fc1cc2ccccc2cc1C1(c2cccs2)C=Cc2c(ccc3ccccc23)O1 (centres unmarked)
0.04
